Experiment: Intracellular compound accumulation (Kp) and intracellular bioavailability (Fic)
Type: in vitro ADME
Conditions: human hepatocytes cultured for 24 h in monolayer format; Monolayer hepatocytes (human, 24 h culture); geometrical mean ± S.E.M.

COMPOUND	Kp at 24 h
COc1ccc2c(c1)c(CC(=O)O)c(C)n2C(=O)c1ccc(Cl)cc1 [Indomethacin]	49
COc1ccc(CCN2CCC(Nc3nc4ccccc4n3Cc3ccc(F)cc3)CC2)cc1 [Astemizole]	1600
CN(CCOc1ccc(CC2SC(=O)NC2=O)cc1)c1ccccn1 (stereo not drawn) [Rosiglitazone]	196

* * *

Test: Intracellular fraction of unbound compound (fu,cell), dialysis of cell homogenate
Conditions: human, mock-transfected HEK293 cell homogenate
Hi! Just check whether fraction unbound at 4 h is below 0.02. Below gives true (1), equal or above gives false (0).

COMPOUND	ANSWER LABEL
Cc1c(O)cccc1C(=O)N[C@@H](CSc1ccccc1)[C@H](O)CN1C[C@H]2CCCC[C@H]2C[C@H]1C(=O)NC(C)(C)C	true (1)
Cc1nccn1CC1CCc2c(c3ccccc3n2C)C1=O (stereo not shown)	false (0)
CC(C)n1c(/C=C/C(O)CC(O)CC(=O)O)c(-c2ccc(F)cc2)c2ccccc21 (stereo not shown)	true (1)
COc1ccc([C@@H]2Sc3ccccc3N(CCN(C)C)C(=O)[C@@H]2OC(C)=O)cc1	false (0)
COCc1c(C(C)C)nc(C(C)C)c(/C=C/[C@@H](O)C[C@@H](O)CC(=O)O)c1-c1ccc(F)cc1	true (1)
C[C@H]1O[C@@H](O[C@H]2[C@@H](O)C[C@H](O[C@H]3[C@@H](O)C[C@H](O[C@H]4CC[C@@]5(C)[C@H](CC[C@@H]6[C@@H]5C[C@@H](O)[C@]5(C)[C@@H](C7=CC(=O)OC7)CC[C@]65O)C4)O[C@@H]3C)O[C@@H]2C)C[C@H](O)[C@@H]1O	true (1)
CCOC(=O)[C@H](CCc1ccccc1)N[C@@H](C)C(=O)N1CCC[C@H]1C(=O)O	false (0)

* * *

Measured Kp at 45 min, listed per entry for reference.
System: P-gp
Test: Intracellular compound accumulation (Kp) and intracellular bioavailability (Fic)
Conditions: dog, MDCK II wild-type cells

COMPOUND	Kp at 45 min
CCOc1cc(CC(=O)N[C@@H](CC(C)C)c2ccccc2N2CCCCC2)ccc1C(=O)O [Repaglinide]	52
CCC(C)(C)C(=O)O[C@H]1C[C@@H](C)C=C2C=C[C@H](C)[C@H](CC[C@@H](O)C[C@@H](O)CC(=O)O)[C@H]21	72
CN(CCOc1ccc(CC2SC(=O)NC2=O)cc1)c1ccccn1 (stereo not shown)	38
O=C(O)Cc1ccccc1Nc1c(Cl)cccc1Cl	28

* * *

Assay: Intracellular compound accumulation (Kp) and intracellular bioavailability (Fic)
Conditions: human, mock-transfected HEK293 cells
So basically, the class depends on measured Kp at 45 min, 0.1 μM, and the ranges are low value: < 4; medium value: ≥ 4 and < 30; high value: ≥ 30

MOLECULE	ANSWER LABEL
CN(CCOc1ccc(CC2SC(=O)NC2=O)cc1)c1ccccn1 (stereo not drawn)	medium value
COc1ccc2c(c1)c(CC(=O)O)c(C)n2C(=O)c1ccc(Cl)cc1	medium value
Cn1c(=O)c2c(ncn2C)n(C)c1=O	low value
Cc1nccn1CC1CCc2c(c3ccccc3n2C)C1=O (stereo not drawn)	medium value
CCOc1cc(CC(=O)N[C@@H](CC(C)C)c2ccccc2N2CCCCC2)ccc1C(=O)O [Repaglinide]	high value
O=C(O)C[C@H](O)C[C@H](O)/C=C/c1c(C2CC2)nc2ccccc2c1-c1ccc(F)cc1	medium value
CCOC(=O)[C@H](CCc1ccccc1)N[C@@H](C)C(=O)N1CCC[C@H]1C(=O)O	low value
O=C(O)Cc1ccccc1Nc1c(Cl)cccc1Cl	high value
CC(C)n1c(/C=C/C(O)CC(O)CC(=O)O)c(-c2ccc(F)cc2)c2ccccc21 (stereo not drawn)	high value
